test system: Fibrinogen (Alexa647-labelled); experiment: fibrinogen binders on compound microarrays, profiling panel, artefact control for SMM control-protein annotation, biochemical, small-molecule microarray, 635/667 nm fluorescence (AID 1131); conditions: fibrinogen-A647 binding fluorescence, higher = more signal;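 note: z-score merges 667 nm fluorescence with per-spot signal-to-noise over triplicate slides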
composite z-score reference
Output: the number by itself.

compound	composite z-score
COC(=O)[C@@]1(Cc2ccccc2)[C@H]2c3cc(C(=O)N4CCCC4)[nH]c3C[C@H]2CN1C(=O)c1ccccc1	0.664
COC(=O)C(CC#Cc1ccc2c(c1)[C@]1(C(=O)N2)[C@H](C(=O)O)[C@H]2C(=O)O[C@H](c3ccccc3)[C@H](c3ccccc3)N2[C@@H]1c1ccccc1OCCO)C(=O)OC	0.95
C=CCOC(=O)[C@@H]1[C@H]2C(=O)O[C@H](c3ccccc3)[C@H](c3ccccc3)N2[C@H](c2ccc(OCCOC(=O)[C@H]3C[C@H]4C(=O)N[C@@H](CC(C)C)C(=O)N4[C@H]3c3ccc(O)cc3)cc2)[C@@]12C(=O)Nc1ccc(I)cc12	0.623

Quick note, composite z-score for COc1ccc(NN2C(C(O)c3ccco3)C=CC3C(=O)N(C4CCCCC4)C(=O)C32)cc1 (stereo unspecified) landed at 0.936

composite z-score measured on C=CCNC(=O)[C@@H]1[C@H]2C(=O)O[C@H](c3ccccc3)[C@H](c3ccccc3)N2[C@H](c2ccccc2OCCO)[C@@]12C(=O)N(C(=O)OCCOC)c1ccc(C#CC3=CCCCC3)cc12 = 0.682

Value of measured composite z-score for the entry CCCCC(=C=CC[C@@H](O)c1ccc(OCCO)cc1)C[C@@H](O)COCc1ccccc1 : -1.01
